Assay: AUC in CD1 mouse at 10 mg/kg, po
Format: ADME, organism-based
Set-up: dose 10 mg/kg, route oral
Conditions: plasma
READOUT: AUC (µM·h)

Consider the reported AUC for these molecules:
COMPOUND_STRUCTURE_STRING	AUC (µM·h)
CC(=O)N1N=C(c2cc(F)ccc2F)S[C@@]12c1cc(F)c(F)cc1OC[C@H]2CCN	7.9
CC(=O)N1N=C(c2cc(F)ccc2F)S[C@@]12c1cc(F)ccc1OC[C@H]2CCN	3.3

a = CC(=O)N1N=C(c2cc(F)ccc2F)S[C@@]12c1cc(F)cc(F)c1OC[C@H]2CCN
b = CC(=O)N1N=C(c2cc(F)ccc2F)S[C@@]12c1cccc(F)c1OC[C@H]2CCN
Q) Of a and b , whose reported AUC is the larger number? Output the label that corresponds to your choice.
A) a

* * *

Target: Kinesin-like protein KIF11 (Homo sapiens)
Sequence (P52732 whole entry): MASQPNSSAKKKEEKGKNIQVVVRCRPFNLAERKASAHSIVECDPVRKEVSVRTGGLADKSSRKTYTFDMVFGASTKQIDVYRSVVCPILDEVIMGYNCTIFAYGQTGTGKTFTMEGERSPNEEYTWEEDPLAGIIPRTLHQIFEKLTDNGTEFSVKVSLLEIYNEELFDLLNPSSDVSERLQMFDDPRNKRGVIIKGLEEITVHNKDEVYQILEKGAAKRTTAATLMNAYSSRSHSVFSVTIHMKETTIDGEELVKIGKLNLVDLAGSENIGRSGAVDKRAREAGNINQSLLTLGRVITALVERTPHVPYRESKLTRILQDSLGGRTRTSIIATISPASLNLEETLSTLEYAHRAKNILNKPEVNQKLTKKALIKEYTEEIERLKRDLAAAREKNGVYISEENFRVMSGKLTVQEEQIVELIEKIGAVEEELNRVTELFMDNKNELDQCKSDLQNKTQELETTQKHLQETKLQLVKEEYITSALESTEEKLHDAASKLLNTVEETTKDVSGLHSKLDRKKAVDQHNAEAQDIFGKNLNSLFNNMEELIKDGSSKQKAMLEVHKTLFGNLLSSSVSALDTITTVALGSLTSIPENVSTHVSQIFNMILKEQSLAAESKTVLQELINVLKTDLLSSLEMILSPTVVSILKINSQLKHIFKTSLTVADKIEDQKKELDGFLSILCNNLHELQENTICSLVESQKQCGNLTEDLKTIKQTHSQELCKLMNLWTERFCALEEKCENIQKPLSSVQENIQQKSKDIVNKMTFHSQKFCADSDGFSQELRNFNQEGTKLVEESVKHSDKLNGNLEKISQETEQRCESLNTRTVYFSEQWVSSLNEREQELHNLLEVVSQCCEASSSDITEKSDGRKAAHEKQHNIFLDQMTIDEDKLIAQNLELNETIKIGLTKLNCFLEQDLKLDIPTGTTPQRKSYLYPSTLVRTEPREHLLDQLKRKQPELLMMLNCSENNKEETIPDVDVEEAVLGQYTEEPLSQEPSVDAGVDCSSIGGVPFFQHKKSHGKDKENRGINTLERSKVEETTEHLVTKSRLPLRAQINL
Test: Inhibition of KSP in human HCT116 cells assessed as phos-histone H3 level by immunofluorescent assay
READOUT: EC50 (nM)

COMPOUND	READOUT	RESULT_NUMBER
CN(C)CCCC(=O)N1N=C(c2cc(F)ccc2F)SC12CCOc1ccccc12 (stereo not given)	EC50	263

1 = CNCCCC(=O)N1N=C(c2cc(F)ccc2F)SC12CCOc1ccccc12 (stereo not given)
2 = COCC(=O)N1N=C(c2cc(F)ccc2F)SC12CCOc1ccccc12 (stereo not given)
Q) Look at 1 and 2 . Which one has the lower recorded EC50 number? Output the label that corresponds to your choice.
A) 1
(1: 367 nM, 2: 665 nM)

A = CC(=O)N1N=C(c2cc(F)ccc2F)S[C@@]12c1cc(F)ccc1OC[C@H]2CCN
B = CC(=O)N1N=C(c2cc(F)ccc2F)SC12CCSc1ccccc12 (stereo not given)
Q) Of A and B , whose reported EC50 is the larger number? Output the label that corresponds to your choice.
A) B

a = CC(=O)N1N=C(c2cc(F)ccc2F)S[C@@]12c1cc(F)c(F)cc1OC[C@H]2CCN
b = O=C(CO)N1N=C(c2cc(F)ccc2F)SC12CCOc1ccccc12 (stereo not given)
Q) Look at a and b . Which one has the lower recorded EC50 number? Output the label that corresponds to your choice.
A) a

* * *

Experiment: Cmax in beagle dog at 10 mg/kg, po
Format: ADME, organism-based, Canis lupus familiaris
Design: dose 10 mg/kg, route oral
Settings: in vivo
READOUT: Cmax (nM)
Kindly provide the numeric value in nM only, without the unit symbol.

Q) Please report the recorded Cmax for `CC(=O)N1N=C(c2cc(F)ccc2F)S[C@@]12c1cc(F)c(F)cc1OC[C@H]2CCN` .
A) 500

* * *

Assay: Retention time of the compound
Assay type: physicochemical
READOUT: Retention_time (min)

Consider the reported Retention_time for these molecules:
COMPOUND_STRUCTURE_STRING	READING_UNIT	Retention_time
CC(=O)N1N=C(c2cc(F)ccc2F)S[C@]12c1ccccc1OC[C@@H]2CCN	min	2.33
CC(=O)N1N=C(c2cc(F)ccc2F)S[C@@]12c1ccccc1OC[C@H]2CCN	min	4.08

A = CC(=O)N1N=C(c2cc(F)ccc2F)S[C@@]12c1ccccc1OC[C@@H]2CCN
B = CC(=O)N1N=C(c2cc(F)ccc2F)S[C@]12c1ccccc1OC[C@H]2CCN
Q) Look at A and B . Which one has the lower recorded Retention_time number? Output the label that corresponds to your choice.
A) B
(B: 2.15 min, A: 5.4 min)
